- ASSAY PROCEDURE: NCI Yeast Anticancer Drug Screen. Data for the bub3 strain (AID 167)
- CONDITIONS: S. cerevisiae bub3 mutant strain, at 50.0 µM, active compounds read high
The panel holds about 79,000 compounds, 15% with a hit somewhere; the sample as a whole holds those more often. Active and inactive are the calls of the source. No stated cut-off is given here; in the data, active means growth inhibition above about 70%; inactive means the rest.
TEST READOUT: growth inhibition

Reference set (2 entries):
[
  {
    "COMPOUND": "CC(C)OC(=O)C(=O)Nc1cccc(Cl)c1",
    "growth inhibition": "-15.3% (inactive)"
  },
  {
    "COMPOUND": "O=C(CC[n+]1ccccc1)Nc1ccc(F)cc1F",
    "growth inhibition": "33.6% (inactive)"
  }
]

Data request: Answer with reported growth inhibition of COC1(OC)C(c2ccco2)C(C#N)(C#N)C1(OC)OC (stereo not drawn)
Data returned: -4.85% (inactive)
